The measured values listed here are drawn from the array DNA melting data of Ke et al. (doi:10.1101/2024.01.08.574731).

- assay-remarks: folding enthalpy; higher = less favourable; fluorescence melt of hairpins on a sequencing array, two-state fit
- condition-notes: sodium 0.088 M
Each entry below lists one item and its recorded folding enthalpy value.

sequence-string | unit-annotation | folding enthalpy
GCTGCTCGAAAGAGGAGC (((.(((....))).))) | kcal/mol | -38.9
GGATTCGGAAACGAACCC ((.((((....)))).)) | kcal/mol | -25.6
GCTTCGCGAAAGCAATGC ((.(.((....)).).)) | kcal/mol | -16.4
GGATTCGAAAGAATCC ((((((....)))))) | kcal/mol | -37.9
GTGAATGGAAACATCCAC (((.(((....))).))) | kcal/mol | -24.1
GCAGACGAAAGTCTTTGC ((((((....)))..))) | kcal/mol | -14.4
GACGAGGCGAAAGCCGTC (((..(((....)))))) | kcal/mol | -8.76
